Just for reference, patent US20220017636A1 is where these values come from.

Measured Signal/background by item
measurement_target: T1, STXBP5 peptide complexed with HLA-A*02:01 on T2 cells (human)
T1 construct: whole, on cells
experiment_notes: flow cytometry, peptide-loaded T2 cells;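 also: binding of single-chain Fv antibody constructs, raised in XenoMouse, to peptide-pulsed T2 cells measured by flow cytometry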
quantity_measured: Signal/background

18093-B11 (scFv, scFv in bacterial lysate, detected with anti-Flag M2) scFv: EVQLLESGGGLVKPGGSLRLSCAASGFTFSDYYMSWIRQAPGKGLEWVSYISKSGSTIYYADSVKGRFTISRDNAKNSLYLQMNSLRAEDTAVYYCATYNYGHFDYWGQGTLVTVSSGGGGSGGGGSGGGGSELVLTQPPSVSVAPGQTARITCGGNNIGSKSVHWYQQKPGQAPVLVVYDDSDRPSGIPERFSGSNSGNTATLTISRVEAGDEADYYCQVWDSSSDHHVVFGGGTKLTVL | 1.1
18181-F3 (scFv, scFv in bacterial lysate, detected with anti-Flag M2) scFv: EVQLLESGGGLVQPGGSLRLSCAASGFTFSNAWMSWVRQAPGKGLEWVGRIKGNTYGGTTDYAAPVKGRFTISRDDSKNTLFLQMNSLKTEDTAVYYCTTPSYSGSYYNYFSVMDVWGQGTTVTVSSGGGGSGGGGSGGGGSELVMTQSPSSLSASVGDRVTITCRTSQSISSYLNWYQQKPGRAPKLLIFAASSLQGGVPSRFSGSGSGTDFTLTISSLQPEDFATYYCQQSYSSPFTFGPGTKVEIK | 1.2
18181-C9 (scFv, scFv in bacterial lysate, detected with anti-Flag M2) scFv: EVQLLESGPGLVKPSQTLSLTCTVSGDSISSNPYYWSWIRQLPGKGLEWIGYISYSGSTFYNPSLKSRVTISVDTSKNQFSLNLTSVTAADTAVYYCARDRLWFGVLNYYYGMDVWGLGTTVTVSSGGGGSGGGGSGGGGSELVLTQSPLSLPVTPGEPASISCRSSQSLLHRNGYNYLDWYLQKPGQSPQLLIYLGSNRASGVPDRFSGSGSGTDFTLKISRVEAEDVGVYYCMQGLQTPFTFGPGTKVEIK | 1.1
